System: senescent fibroblasts (SnCs), IMR90 cells
Experiment: Senolytic activity: killing senescent (irradiated) IMR90 fibroblasts, CellTiter-Glo
Assay type: cell-based, human
Conditions: senescent vs non-senescent cells of the same tissue type
Protocol: Human fibroblast IMR90 cells can be obtained from the American Type Culture Collection (ATCC®) with the designation CCL-186. […] On day 10, the quiescent healthy cells are prepared as follows. […] Cells are dispersed, counted, and prepared in medium at a concentration of 50,000 cells per mL. […] On day 13, the proliferating healthy cell population is prepared as follows. […] Cells are dispersed, counted, and prepared in medium at a concentration of 25,000 cells per mL. […]
Property: SI (specificity for senescent cells); scope: individual molecules
Keep the answer to the number alone.

# smiles_representation, SI (specificity for senescent cells)
rows = [
    ("Cc1c(C(=O)O)c(-c2cccc(N3CCN(c4ccc(NS(=O)(=O)c5ccc(N[C@H](CCN6CCC(O)CC6)CSc6ccccc6)c(S(=O)(=O)C(F)(F)F)c5)cc4)CC3)c2)c(-c2ccc(Cl)cc2)n1C(C)C", 18.5),
]

Name the recorded SI (specificity for senescent cells) of the molecule listed here: `Cc1c(S(C)(=O)=O)c(-c2cc(F)cc(N3CCN(c4ccc(NS(=O)(=O)c5ccc(N[C@H](CCN6CCC(O)CC6)CSc6ccccc6)c(S(=O)(=O)C(F)(F)F)c5)cc4)CC3)c2)c(-c2ccc(F)cc2)n1C(C)C`
128.7

Name the recorded SI (specificity for senescent cells) of the molecule listed here: `Cc1c(S(C)(=O)=O)c(-c2cc(F)cc(N3CCN(c4ccc(NS(=O)(=O)c5ccc(N[C@H](CCN6CCC(O)CC6)CSc6ccccc6)c(S(=O)(=O)C(F)(F)F)c5)cc4)CC3)c2)c(-c2ccc(Cl)cc2)n1C(C)C`
366.7

Name the recorded SI (specificity for senescent cells) of the molecule listed here: `CCn1c(C)c(S(C)(=O)=O)c(-c2cc(F)cc(N3CCN(c4ccc(NS(=O)(=O)c5ccc(N[C@H](CCN6CCC(O)CC6)CSc6ccccc6)c(S(=O)(=O)C(F)(F)F)c5)cc4)CC3)c2)c1-c1ccc(F)cc1`
60.0

* * *

System: senescent fibroblasts (SnCs), IMR90 cells
Assay: Senolytic activity: killing senescent (irradiated) IMR90 fibroblasts, CellTiter-Glo
Assay type: cell-based, human
Conditions: senescent vs non-senescent cells of the same tissue type
Description: Human fibroblast IMR90 cells can be obtained from the American Type Culture Collection (ATCC®) with the designation CCL-186. […] On day 10, the quiescent healthy cells are prepared as follows. […] Cells are dispersed, counted, and prepared in medium at a concentration of 50,000 cells per mL. […] On day 13, the proliferating healthy cell population is prepared as follows. […] Cells are dispersed, counted, and prepared in medium at a concentration of 25,000 cells per mL. […]
property_measured: SI (specificity for senescent cells)
Keep the answer to the number alone.

# smiles_representation, observed_value
records = [
    ("CCn1c(C)c(C(=O)NS(C)(=O)=O)c(-c2cccc(N3CCN(c4ccc(NS(=O)(=O)c5ccc(N[C@H](CCN(C)C)CSc6ccccc6)c([N+](=O)[O-])c5)cc4)CC3)c2)c1-c1ccc(Cl)cc1", 15.3),
    ("Cc1c(S(C)(=O)=O)c(-c2cc(F)cc(N3CCN(c4ccc(NS(=O)(=O)c5ccc(N[C@H](CCN6CCC(C(=O)O)CC6)CSc6ccccc6)c(S(=O)(=O)C(F)(F)F)c5)cc4)CC3)c2)c(-c2ccc(Cl)cc2)n1C(C)C", 66.7),
]

--- query ---
Name the recorded SI (specificity for senescent cells) of the molecule listed here: `CCn1c(C)c(C(=O)O)c(-c2cccc(N3CCN(c4ccc(NS(=O)(=O)c5ccc(N[C@H](CCN6CCC(O)CC6)CSc6ccccc6)c(S(=O)(=O)C(F)(F)F)c5)cc4)CC3)c2)c1-c1ccc(Cl)cc1`
11.7

* * *

Molecular target: UniProt Q92843
Sequence (Q92843 1-193): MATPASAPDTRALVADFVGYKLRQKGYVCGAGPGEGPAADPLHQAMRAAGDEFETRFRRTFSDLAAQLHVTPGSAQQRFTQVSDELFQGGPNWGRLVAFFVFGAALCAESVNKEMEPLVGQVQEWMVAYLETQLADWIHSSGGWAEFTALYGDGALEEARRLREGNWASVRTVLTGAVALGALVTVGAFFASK
property_measured: pKi
Note on units: pKi is unitless, being -log10 of a concentration expressed in mol/L.

# smiles_representation, system_name, pKi
data = [
    ("Cc1c(S(C)(=O)=O)c(-c2cc(F)cc(N3CCN(c4ccc(NS(=O)(=O)c5ccc(N[C@H](CCN6CCC(O)CC6)CSc6ccccc6)c(S(=O)(=O)C(F)(F)F)c5)cc4)CC3)c2)c(-c2ccc(F)cc2)n1C(C)C", "UniProt Q92843", 9.76),
    ("CCn1c(C)c(C(=O)O)c(-c2cccc(N3CCN(c4ccc(NS(=O)(=O)c5ccc(N[C@H](CCN6CCC(O)CC6)CSc6ccccc6)c(S(=O)(=O)C(F)(F)F)c5)cc4)CC3)c2)c1-c1ccc(Cl)cc1", "UniProt Q92843", 9.18),
]

--- query ---
Name the recorded pKi of the compound listed here: `CCn1c(C)c(C(=O)NS(C)(=O)=O)c(-c2cccc(N3CCN(c4ccc(NS(=O)(=O)c5ccc(N[C@H](CCN(C)C)CSc6ccccc6)c([N+](=O)[O-])c5)cc4)CC3)c2)c1-c1ccc(Cl)cc1`
9.79
